tested on: SN12C renal; assay: NCI-60 one-dose screen, 48 h; conditions: 10 µM unless noted
About 83,000 compounds went through this panel and 20% of them were active in at least one assay; those are over-represented in the sample as a whole. Calls of active or inactive are those of the source. How the source made its calls: active means growth percent below 10; inactive means the rest.
One label from this list, please: T for active, F for inactive

Worked examples, 4 compounds total:
- COMPOUND: "COc1ccc2c(c1)C(C)Cc1c(N(C)C)ncnc1N2C (stereo not given)"
  GROUP LABEL: "F"
- COMPOUND: "O=C(Nc1ccc(Br)c(Cl)c1)c1cc(F)ccc1O"
  GROUP LABEL: "T"
- COMPOUND: "O=C(Nc1ccc(I)cc1)c1cccc([N+](=O)[O-])c1O"
  GROUP LABEL: "F"
- COMPOUND: "COc1cccc(-c2nc3sccn3c2-c2ccnc(NCCCNS(=O)(=O)c3ccc(F)cc3)n2)c1"
  GROUP LABEL: "F"

Note: attention shifts to another entry.
**Q:** Name the outcome recorded for CC/C=C\C/C=C\C[C@H](O)C/C=C1/C(=O)C=C[C@H]1C/C=C\CCC(=O)OC in the assay.
**A:** T

---

test system: HCT-116 colon; test: NCI-60 one-dose screen, 48 h (100 = growth as untreated, 0 = no growth, -100 = all killed); settings: 10 µM unless noted
The panel holds about 83,000 compounds, 20% with a hit somewhere; the sample as a whole holds those more often.
MEASURED METRIC: growth (%)
Numbers only, in %.

Example results:
- CHEMICAL SMILES: "CCC(=O)Oc1ccc2c(c1)CC[C@@H]1[C@@H]2CC[C@]2(C)C[C@H](OC(=O)CC)C[C@@H]12"
  UNIT TEXT: "%"
  OBSERVED RESULT: 50.5
- CHEMICAL SMILES: "Nc1nc(Cl)c2c(ncn2Cc2ccc(CCl)cc2)n1"
  UNIT TEXT: "%"
  OBSERVED RESULT: 94.2
- CHEMICAL SMILES: "CCN(Cc1ccccc1)c1ccc(SC#N)cc1"
  UNIT TEXT: "%"
  OBSERVED RESULT: 43.7

Below are some molecules; for each one, tell me its growth.
1. COc1cc2nc(Cl)nc(NCCO)c2cc1OC
2. Cc1c(C(=O)NCc2ccccc2)[n+](=O)c2cc(F)ccc2n1[O-]
3. O=C(O)c1ccc(-n2cc(CNc3ccc(C(F)(F)F)cc3)c(-c3ccccc3)n2)cc1

**A:**
[113, 97.9, 101]

---

system: 786-0 renal; experiment: NCI-60 one-dose screen, 48 h (100 = growth as untreated, 0 = no growth, -100 = all killed); conditions: 10 µM unless noted
The panel holds about 83,000 compounds, 20% with a hit somewhere; the sample as a whole holds those more often.
Label scheme for growth: lower than 90% is not satisfied, 90% and above is satisfied.

**Q:** Threshold query (growth >= 90%) on COc1cc2c(cc1OCCCCn1c(-c3cc(=O)c4ccccc4o3)nc3ccccc31)N=C[C@@H]1CCCN1C2=O
**A:** satisfied

**Q:** Moving on to the next compound: CC1Cc2c(N(C)C)ncnc2N(C)c2ccc(O)cc21 (stereo unspecified)
**A:** not satisfied

**Q:** Moving on to the next compound: COc1ccc2c(c1)C(=O)/C(=C/c1ccc(O)cc1)O2
**A:** satisfied

**Q:** Moving on to the next compound: COc1cccc2nc(Nc3ccc(NC(=O)c4ccc5ncccc5c4)cc3)ccc12
**A:** not satisfied
